- system_under_test: Hsp90 in C. albicans (SC5314) lysate (Candida albicans, UniProt P46598)
- Construct: endogenous in cells; host or cells: C. albicans SC5314 whole-cell lysate
- Sequence (P46598 whole entry): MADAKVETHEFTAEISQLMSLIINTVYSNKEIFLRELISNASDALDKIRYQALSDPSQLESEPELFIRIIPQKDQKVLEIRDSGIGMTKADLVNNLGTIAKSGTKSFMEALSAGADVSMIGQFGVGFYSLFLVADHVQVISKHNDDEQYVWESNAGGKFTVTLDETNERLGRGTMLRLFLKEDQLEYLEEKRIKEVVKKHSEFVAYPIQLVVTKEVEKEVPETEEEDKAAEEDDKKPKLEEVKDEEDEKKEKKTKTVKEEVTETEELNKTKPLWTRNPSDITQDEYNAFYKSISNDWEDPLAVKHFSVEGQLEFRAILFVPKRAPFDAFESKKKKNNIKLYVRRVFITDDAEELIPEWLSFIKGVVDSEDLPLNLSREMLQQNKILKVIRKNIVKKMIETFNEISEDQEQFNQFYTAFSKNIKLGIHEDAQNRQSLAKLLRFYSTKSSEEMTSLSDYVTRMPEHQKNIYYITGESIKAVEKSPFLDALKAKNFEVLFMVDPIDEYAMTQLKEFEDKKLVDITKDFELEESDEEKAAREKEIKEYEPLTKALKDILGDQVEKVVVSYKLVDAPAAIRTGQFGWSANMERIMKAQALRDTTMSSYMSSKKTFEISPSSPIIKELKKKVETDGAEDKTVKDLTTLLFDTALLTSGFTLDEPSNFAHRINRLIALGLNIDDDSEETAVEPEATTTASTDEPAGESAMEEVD
- measurement_description: biochemical
- Format: binding
- run_parameters: SC5314 lysate, 12.346 nM
reported_metric: FP signal (raw)

COc1ccccc1CON=C1C=CC=CC2OC2CC(C)OC(=O)c2c(O)cc(O)c(Cl)c2C1 (mixture of isomers) = 193
COc1ccc(CON=C2C=CC=CC3OC3CC(C)OC(=O)c3c(O)cc(O)c(Cl)c3C2)cc1 (mixture of isomers) = 200
CC1CC2OC2C=CC=CC(=NOCCN2CCCC2=O)Cc2c(Cl)c(O)cc(O)c2C(=O)O1 (stereo not drawn) [KF58333, reference compound] = 71

Attribution: paper PMC6345968
